test system: LOC_OS04G41100-cb001; test: thermal shift delta Tm vs DMSO control; higher = stronger stabilization (binding); details: 12.5 µM; protein concentration 2 µM;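 also: purified Escherichia coli-expressed rice kinase domain construct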
Sequence (as listed by the source): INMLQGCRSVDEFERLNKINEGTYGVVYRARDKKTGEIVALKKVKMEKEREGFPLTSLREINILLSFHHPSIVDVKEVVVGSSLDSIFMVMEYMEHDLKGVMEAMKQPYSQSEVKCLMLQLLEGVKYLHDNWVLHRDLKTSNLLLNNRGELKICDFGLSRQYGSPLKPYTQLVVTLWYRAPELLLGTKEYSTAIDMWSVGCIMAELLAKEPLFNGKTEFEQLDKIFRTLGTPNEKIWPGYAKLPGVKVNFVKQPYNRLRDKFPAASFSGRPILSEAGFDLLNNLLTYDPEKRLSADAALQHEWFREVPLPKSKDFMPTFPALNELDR
Reported thermal shift delta Tm values for a set of molecules

NC(=O)c1ccc2nc(-c3ccc(Oc4ccc(Cl)cc4)cc3)[nH]c2c1    -0.49 °C
N#Cc1ccc2[nH]c(O)c(-c3ccc(CN4CCOCC4)cn3)c2c1    2.66 °C
CN(C)C/C=C/C(=O)Nc1ccc(C(=O)Nc2cccc(Nc3ncc(Cl)c(-c4c[nH]c5ccccc45)n3)c2)cc1    1.76 °C
O=C(c1ccc(/C=C/c2n[nH]c3ccccc23)cc1)N1CCNCC1    0.96 °C
COc1ccc(COc2ccc(Cc3cnc(N)nc3N)cc2OC)cc1    0.24 °C

Let's switch to this molecule now.
Returns the measured thermal shift delta Tm for the input molecule. Input: C=CC(=O)Nc1cccc(Oc2nc(Nc3ccc(N4CCN(C)CC4)cc3)nc3ccsc23)c1
0.71 °C

* * *

tested on: LOC_OS02G14120-cb001; assay: thermal shift delta Tm vs DMSO control; higher = stronger stabilization (binding); details: 12.5 µM; protein concentration 2 µM
Where a name gives a salt, the structure may show the parent alone.
Think of 2 °C as a floor: if thermal shift delta Tm stands on it or above, it is Y; beneath it, N.

Cn1cc(-c2ccc3ncc(Cc4ccc5ncccc5c4)n3n2)cn1    Y
Cc1ncc(CO)c(CO)c1O    N
COc1ccc(C(=O)Nc2sc3c(c2C(N)=O)CCCC3)cc1OC    Y
C1=N/C2=N/c3ccc(OCCN4CCCC4)c(c3)COC/C=C/COCc3cccc(c3)C(=C1)N2 [Pacritinib (SB1518)]    Y
CCCCCCCCc1ccc(CCC(N)(CO)CO)cc1 [Fingolimod (FTY720) HCl]    N
COc1cc2ncnc(Nc3ccc(O)c(Br)c3)c2cc1OC    Y
COc1cc2ncnc(Oc3ccc(CC(=O)Nc4cnn(C(C)C)c4)cc3)c2cc1OC    N
COc1ccc(-c2ccc3c(N4CCOCC4)nc(N4C[C@@H](C)O[C@@H](C)C4)nc3n2)cc1CO    N
C#Cc1cccc(Nc2ncnc3cc4c(cc23)OCCOCCOCCO4)c1    Y
NC1(c2ccc(-c3nc4ccn5c(=O)[nH]nc5c4cc3-c3ccccc3)cc2)CCC1    N

Tell me whether thermal shift delta Tm is at least 2 °C here: N#Cc1c(O)c2c(-c3ccc(-c4ccccc4O)cc3)csc2[nH]c1=O
N

What about this compound? COc1ccc(-c2cc3nccn3c(Nc3ncccc3C(N)=O)n2)cc1OC
Y

What about this compound? CC[C@@H]1C(=O)N(C)c2cnc(Nc3ccc(C(=O)NC4CCN(C)CC4)cc3OC)nc2N1C1CCCC1
N

What about this compound? COc1cccc(-c2cc(=O)c3ccccc3o2)c1N
N

What about this compound? CC1(C)OC(=O)C=C[C@]2(C)[C@H]3CC[C@@]4(C)[C@H](c5ccoc5)OC(=O)[C@H]5O[C@]54[C@]3(C)C(=O)C[C@@H]12
N

* * *

system: LOC_OS03G50450-cb001; experiment: thermal shift delta Tm vs DMSO control; higher = stronger stabilization (binding); conditions: 12.5 µM; protein concentration 2 µM
Reported thermal shift delta Tm values for a set of molecules
The reply should be a number in °C, with the unit left off.

Example entries begin here.
COc1cc2c(Oc3ccc4[nH]c(C)cc4c3F)ncnc2cc1OCCCN1CCCC1    -0.12
CCc1cncnc1N1CCN(Cc2nc3ccc(C(F)(F)F)cc3[nH]2)CC1    0.04
CCN(CC)CCNC(=O)c1c(C)[nH]c(/C=C2\C(=O)Nc3ccc(F)cc32)c1C [Sunitinib Malate]    2.74
CC1(COc2ccc3c(c2)ncn3-c2ccc3cccc(N4CCC(N)CC4)c3n2)COC1    0.06
O=c1cc(N2CCOCC2)oc2c(-c3cccc4c3sc3ccccc34)cccc12    0.91
Cn1cc(-c2ccc(F)c(C(F)(F)F)c2)nc1C1CCN(c2ncnc3[nH]ncc23)CC1    0.81
CC(C)(C)NC(=O)c1cncn1C1CCN(c2ccc(-c3nnc(C(F)(F)F)o3)cn2)CC1    0.7
O=C(/C=C/c1ccc2ccccc2n1)c1ccncc1    0.7

Returns the measured thermal shift delta Tm for the input molecule. Input: O=C(Cc1ccc(-c2ccc(OCCN3CCOCC3)cc2)cn1)NCc1ccccc1
0.47

What about this molecule? Cc1cc(Nc2nc(N[C@@H](C)c3ccc(F)cc3)c(C#N)cc2F)n[nH]1
1.39

What about this molecule? Cc1ccc(NC(=O)c2ccc(CN3CC[C@H](N(C)C)C3)c(C(F)(F)F)c2)cc1Nc1nccc(-c2cncnc2)n1
0.25

What about this molecule? Cc1cc(C)c(/C=C2\C(=O)Nc3ccccc32)[nH]1 [Semaxanib (SU5416)]
2.32

* * *

system: LOC_OS07G06570-cb004; experiment: thermal shift delta Tm vs DMSO control; higher = stronger stabilization (binding); conditions: 12.5 µM; protein concentration 2 µM
Think of 0.7 °C as a floor: if thermal shift delta Tm stands on it or above, it is Criterion met; beneath it, Criterion not met.

COc1ccc(-c2ccc3c(N4CCOCC4)nc(N4C[C@@H](C)O[C@@H](C)C4)nc3n2)cc1CO    Criterion not met
COc1cc2c(N3CCN(C(=O)Nc4ccc(OC(C)C)cc4)CC3)ncnc2cc1OCCCN1CCCCC1    Criterion met
COc1cc2c(Nc3ccc(NC(=O)c4ccccc4)cc3)ncnc2cc1OCCCN1CCOCC1    Criterion met

Tell me whether thermal shift delta Tm is at least 0.7 °C here: Cc1cc(C(=O)Nc2nc3cccc(Cl)c3n2[C@@H]2CCCCN(C(=O)/C=C/CN(C)C)C2)ccn1 [Nazartinib (EGF816, NVS-816)]
Criterion met

What about this compound? CC(C)(C)c1nc(-c2ccc(NC(=O)Nc3cccc(C(F)(F)F)c3)c3ccccc23)c2c(N)nccn12
Criterion met

What about this compound? CC(C)[C@H](CO)Nc1nc(Nc2cccc(Cl)c2)c2ncn(C(C)C)c2n1
Criterion not met

What about this compound? O=C(O)c1ccc(Nc2ncc3c(n2)-c2ccc(Cl)cc2C(c2c(F)cccc2F)=NC3)cc1
Criterion not met

What about this compound? COc1ccc2[nH]cc(/C=C3\C(=O)Nc4ccc(NC(=O)CCN5CCCCC5)cc43)c2c1
Criterion met

* * *

system: LOC_OS05G43570-cb004; assay: thermal shift delta Tm vs DMSO control; higher = stronger stabilization (binding); conditions: 12.5 µM; protein concentration 2 µM
Reported thermal shift delta Tm values for a set of compounds
The reply should be a number in °C, with the unit left off.

Example entries begin here.
NC(=O)c1cnc(N[C@@H]2CCCC[C@@H]2N)nc1Nc1cccc(-n2nccn2)c1    0.39
CNC(=O)c1cc(Oc2ccc(NC(=O)Nc3ccc(Cl)c(C(F)(F)F)c3)cc2)ccn1    1.2
COCCOc1ccc2c(c1)ncn2-c1ccc2cccc(N3CCC(N)CC3)c2n1    0.49

Returns the measured thermal shift delta Tm for the input compound. Input: C[C@@H](Nc1cc(F)cc(F)c1)c1cc(C(=O)N(C)C)cc2c(=O)cc(N3CCOCC3)oc12
0.2

What about this compound? CCN1/C(=C/C(C)=O)Sc2ccc(OC)cc21
0.34

* * *

system: LOC_OS01G02750-cb003; assay: thermal shift delta Tm vs DMSO control; higher = stronger stabilization (binding); conditions: 12.5 µM; protein concentration 2 µM
Reported thermal shift delta Tm values for a set of molecules
The reply should be a number in °C, with the unit left off.

CN1CCN(CCOc2cc(OC3CCOCC3)c3c(Nc4c(Cl)ccc5c4OCO5)ncnc3c2)CC1    0.03
CC(C)c1c2cc(-c3ccnc(NC4CCC(NC5CCOCC5)CC4)n3)ccc2nn1C (configuration not stated)    4.38
Cc1ccc(-n2nc(C(C)(C)C)cc2NC(=O)Nc2ccc(OCCN3CCOCC3)c3ccccc23)cc1    0.28
O=C(NC[C@H](O)CO)c1ccncc1Nc1ccc(I)cc1F    0.07
COc1cc(Nc2ncc(F)c(Nc3ccc4c(n3)N(COP(=O)(O)O)C(=O)C(C)(C)O4)n2)cc(OC)c1OC [R788 (Fostamatinib) Disodium]    1.55
CNC(=O)c1cc(Oc2ccc(NC(=O)Nc3ccc(Cl)c(C(F)(F)F)c3)cc2)ccn1    3.61
COc1cc(OC)cc(-c2cc3cnc(N)nc3nc2NC(=O)NC(C)(C)C)c1    1.48
CC1(C)C=Cc2c(ccc3c2OC[C@@H](c2ccc(O)cc2O)C3)O1    3.18
CN1CCN(Cc2ccc(NC(=O)Nc3ccc(Oc4ccnc(N)n4)cc3)cc2C(F)(F)F)CC1    4.82
CCN1CCN(Cc2ccc(Nc3ncc(F)c(-c4cc(F)c5nc(C)n(C(C)C)c5c4)n3)nc2)CC1    2.83

Returns the measured thermal shift delta Tm for the input molecule. Input: Cc1cc2c(F)c(Oc3ncnn4cc(OC[C@@H](C)OC(=O)[C@H](C)N)c(C)c34)ccc2[nH]1
0.78

What about this molecule? COc1cc2c(Oc3ccc(NC(=O)C4(C(=O)Nc5ccc(F)cc5)CC4)cc3F)ccnc2cc1OCCCN1CCOCC1
3.47

What about this molecule? Cc1[nH]c(/C=C2\C(=O)Nc3ccc(S(=O)(=O)Cc4c(Cl)cccc4Cl)cc32)c(C)c1C(=O)N1CCC[C@@H]1CN1CCCC1
1.5

What about this molecule? Cc1cc(CN2CCN(c3c(Br)cnc4nc(-c5ccc(N6CCN(C)CC6)cc5)[nH]c34)CC2)no1
1.45

What about this molecule? N#Cc1cccc(-c2c[nH]c3ncnc(N4CCOCC4)c23)c1
2.58

What about this molecule? CC(C)n1ncnc1-c1cn2c(n1)-c1ccc(O[C@@H](C)C(N)=O)cc1OCC2
1.25

What about this molecule? Cn1c(Nc2ccc(C(F)(F)F)cc2)nc2cc(Oc3ccnc(-c4ncc(C(F)(F)F)[nH]4)c3)ccc21
15.5

src = the supplement of paper PMC9694430
